Reported MIC values follow for various compounds
tested on: Staphylococcus aureus; experiment: Antibacterial activity against methicillin-resistant Staphylococcus aureus isolate M1 after 16 to 20 hrs by broth microdilution method; assay type: functional

compound | system | unitsText | MIC
CCCCCCCCCCN(CCCCCCCCCC)C(=O)[C@H](N)CO.Cl | Staphylococcus aureus | µg/mL | 32
CCCCCCCCN(CCCCCCCC)C(=O)[C@@H](N)CO.Cl | Staphylococcus aureus | µg/mL | 4
CCCCCCCN(CCCCCCC)C(=O)[C@@H](N)CCCCN.Cl.Cl | Staphylococcus aureus | µg/mL | 8
CCCCCCCCN(CCCCCCCC)C(=O)[C@H](N)CO.Cl | Staphylococcus aureus | µg/mL | 4
CCCCCCCCN(CCCCCCCC)C(=O)[C@@H](N)[C@@H](C)CC.Cl | Staphylococcus aureus | µg/mL | 4
CCCCCCCCN(CCCCCCCC)C(=O)[C@@H](N)CC(C)C.Cl | Staphylococcus aureus | µg/mL | 4
CCCCCCCCCCN(CCCCCCCCCC)C(=O)[C@@H](N)CCCCN.Cl.Cl | Staphylococcus aureus | µg/mL | 1
CCCCCCCCN(CCCCCCCC)C(=O)[C@@H](N)CCCN=C(N)N.Cl.Cl.Cl | Staphylococcus aureus | µg/mL | 1
CCCCCCCCCN(CCCCCCCCC)C(=O)[C@@H](N)CCCN=C(N)N.Cl.Cl.Cl | Staphylococcus aureus | µg/mL | 2
CCCCCCCCN(CCCCCCCC)C(=O)[C@@H](N)Cc1ccccc1.Cl | Staphylococcus aureus | µg/mL | 32
CCCCCCCCN(CCCCCCCC)C(=O)[C@@H](N)C(C)O.Cl (some centres not stated) | Staphylococcus aureus | µg/mL | 8
CCCCCCCCN(CCCCCCCC)C(=O)[C@@H](N)CCCCN.Cl.Cl | Staphylococcus aureus | µg/mL | 1
CCCCCCCCCCCN(CCCCCCCCCCC)C(=O)[C@@H](N)CCCCN.Cl.Cl | Staphylococcus aureus | µg/mL | 2
CCCCCCCCCN(CCCCCCCCC)C(=O)[C@@H](N)CCCCN.Cl.Cl | Staphylococcus aureus | µg/mL | 1
CCCCCCCCCCN(CCCCCCCCCC)C(=O)[C@@H](N)CO.Cl | Staphylococcus aureus | µg/mL | 16
CCCCCCCCN(CCCCCCCC)C(=O)[C@H](C)N.Cl | Staphylococcus aureus | µg/mL | 4
CCCCCCCCCCN(CCCCCCCCCC)C(=O)[C@@H](N)CCCN=C(N)N.Cl.Cl.Cl | Staphylococcus aureus | µg/mL | 2

---

Reported HC50 at 1 h values follow for various compounds
assay: Hemolytic activity in sheep RBC after 1 hr; format: ADME, cell-based, Ovis aries, Erythrocyte; conditions: sheep red blood cells (erythrocytes)

structureString | censoringOperator | HC50 at 1 h / µg/mL
CCCCCCCCCCN(CCCCCCCCCC)C(=O)[C@@H](N)CCCCN.Cl.Cl | = | 98
CCN(CC)C(=O)[C@@H](N)CCCCN.Cl.Cl | > | 1000
CCCCCCCCN(CCCCCCCC)C(=O)[C@@H](N)CC(C)C.Cl | > | 1000
CCCCCCCCN(CCCCCCCC)C(=O)[C@@H](N)CCCCN.Cl.Cl | = | 225
CCCCCCCCN(CCCCCCCC)C(=O)[C@H](N)CO.Cl | = | 367
CCCCCCCCCN(CCCCCCCCC)C(=O)[C@@H](N)CCCCN.Cl.Cl | = | 133
CCCCCCCCN(CCCCCCCC)C(=O)[C@@H](N)CCCN=C(N)N.Cl.Cl.Cl | = | 124
CCCCCCCCCN(CCCCCCCCC)C(=O)[C@@H](N)CCCN=C(N)N.Cl.Cl.Cl | = | 119
CCCCCCCCCCN(CCCCCCCCCC)C(=O)[C@H](N)CO.Cl | > | 1000
CCCCCCCCCCN(CCCCCCCCCC)C(=O)[C@@H](N)CO.Cl | > | 1000
CCCCCCCCN(CCCCCCCC)C(=O)[C@@H](N)CO.Cl | > | 1000

---

Reported log10(MIC) values follow for various compounds
test system: Staphylococcus aureus; assay: Antibacterial activity against methicillin-resistant Staphylococcus aureus isolate M5 after 16 to 20 hrs by broth microdilution method; assay type: functional
quantityKind: log10(MIC) (log10 of the value in µg/mL)

structureString | log10(MIC)
CCCCCCCCN(CCCCCCCC)C(=O)[C@H](C)N.Cl | 0.60
CCCCCCCCCCN(CCCCCCCCCC)C(=O)[C@@H](N)CO.Cl | 1.20
CCCCCCCCN(CCCCCCCC)C(=O)[C@@H](N)CCCN=C(N)N.Cl.Cl.Cl | 0.00
CCCCCCCN(CCCCCCC)C(=O)[C@@H](N)CCCCN.Cl.Cl | 0.90
CCCCCCCCN(CCCCCCCC)C(=O)[C@@H](N)[C@@H](C)CC.Cl | 0.60
CCCCCCCCN(CCCCCCCC)C(=O)[C@@H](N)Cc1ccccc1.Cl | 1.51

---

test: Selectivity index, ratio of HC50 for sheep RBC to MIC for Escherichia coli ATCC 25922; type: toxicity; details: sheep red blood cells (erythrocytes), read-out: Selectivity Index
quantityKind: selectivity ratio

structureString | quantityKind | reported
CCCCCCCCCN(CCCCCCCCC)C(=O)[C@@H](N)CCCCN.Cl.Cl | selectivity ratio | 66.5

---

tested on: Enterobacteriaceae; experiment: Antibacterial activity against NDM-1-producing Enterobacteriaceae after 16 to 20 hrs by broth microdilution method; format: functional
quantityKind: MIC (mg/L)

compound | system | unitsText | reported
CCCCCCCCN(CCCCCCCC)C(=O)[C@@H](N)CO.Cl | Enterobacteriaceae | mg/L | 16
CCCCCCCCCCCN(CCCCCCCCCCC)C(=O)[C@@H](N)CCCCN.Cl.Cl | Enterobacteriaceae | mg/L | 32
CCCCCCCCN(CCCCCCCC)C(=O)[C@@H](N)C(C)O.Cl (some centres not stated) | Enterobacteriaceae | mg/L | 64
CCCCCCCN(CCCCCCC)C(=O)[C@@H](N)CCCCN.Cl.Cl | Enterobacteriaceae | mg/L | 16
CCCCCCCCN(CCCCCCCC)C(=O)[C@@H](N)CCCCN.Cl.Cl | Enterobacteriaceae | mg/L | 4
CCCCCCCCN(CCCCCCCC)C(=O)[C@H](N)CO.Cl | Enterobacteriaceae | mg/L | 16
CCCCCCCCCCN(CCCCCCCCCC)C(=O)[C@@H](N)CCCN=C(N)N.Cl.Cl.Cl | Enterobacteriaceae | mg/L | 4

---

test system: Enterobacteriaceae; assay: Antibacterial activity against NDM-1-producing Enterobacteriaceae isolate N10 after 16 to 20 hrs by broth microdilution method; type: functional
Reported MIC values follow for various compounds
quantityKind: MIC

compound | quantityKind | reported
CCCCCCCCN(CCCCCCCC)C(=O)[C@@H](N)C(C)O.Cl (some centres not stated) | MIC | > 64 µg/mL
CCCCCCCCN(CCCCCCCC)C(=O)[C@H](N)CO.Cl | MIC | 16 µg/mL
CCCCCCCCCN(CCCCCCCCC)C(=O)[C@@H](N)CCCCN.Cl.Cl | MIC | 4 µg/mL
CCCCCCCCCCN(CCCCCCCCCC)C(=O)[C@@H](N)CCCN=C(N)N.Cl.Cl.Cl | MIC | 8 µg/mL
CCCCCCCCCN(CCCCCCCCC)C(=O)[C@@H](N)CCCN=C(N)N.Cl.Cl.Cl | MIC | 4 µg/mL
CCCCCCCCN(CCCCCCCC)C(=O)[C@H](C)N.Cl | MIC | 64 µg/mL
CCCCCCCN(CCCCCCC)C(=O)[C@@H](N)CCCCN.Cl.Cl | MIC | 16 µg/mL
CCCCCCCCN(CCCCCCCC)C(=O)[C@@H](N)CCCCN.Cl.Cl | MIC | 8 µg/mL
CCCCCCCCCCN(CCCCCCCCCC)C(=O)[C@@H](N)CCCCN.Cl.Cl | MIC | 4 µg/mL
CCCCCCCCN(CCCCCCCC)C(=O)[C@@H](N)CCCN=C(N)N.Cl.Cl.Cl | MIC | 8 µg/mL
CCCCCCCCCCCN(CCCCCCCCCCC)C(=O)[C@@H](N)CCCCN.Cl.Cl | MIC | 32 µg/mL
CCCCCCCCN(CCCCCCCC)C(=O)[C@@H](N)CO.Cl | MIC | 32 µg/mL

---

assay: Selectivity index, ratio of HC50 for sheep RBC to MIC for Staphylococcus aureus ATCC 29213; type: toxicity; settings: sheep red blood cells (erythrocytes), read-out: Selectivity Index
quantityKind: selectivity ratio

structureString | reported
CCCCCCCCCN(CCCCCCCCC)C(=O)[C@@H](N)CCCCN.Cl.Cl | 133

---

assay: Hemolytic activity in sheep RBC after 1 hr; assay type: ADME, cell-based, Ovis aries, Erythrocyte; details: sheep red blood cells (erythrocytes)
Exam item: assign T to entries whose HC50 at 1 h is below 400 µg/mL and F to entries at or above 400 µg/mL. Note that a value of exactly 400 µg/mL receives F.

molecule | className
CCCCCCCN(CCCCCCC)C(=O)[C@@H](N)CCCCN.Cl.Cl | F
CCCCCCCCN(CCCCCCCC)C(=O)[C@H](C)N.Cl | T
CCCCCCCCN(CCCCCCCC)C(=O)[C@@H](N)[C@@H](C)CC.Cl | T
CCCCCN(CCCCC)C(=O)[C@@H](N)CCCCN.Cl.Cl | F
CCCCCCCCN(CCCCCCCC)C(=O)[C@@H](N)Cc1ccccc1.Cl | F
CCCCN(CCCC)C(=O)[C@@H](N)CCCCN.Cl.Cl | F
CCCCCCCCCCN(CCCCCCCCCC)C(=O)[C@@H](N)CCCN=C(N)N.Cl.Cl.Cl | T
CCCCCCCCCCCN(CCCCCCCCCCC)C(=O)[C@@H](N)CCCCN.Cl.Cl | T
CCCCCCCCN(CCCCCCCC)C(=O)[C@@H](N)C(C)O.Cl (stereo not given in full) | T
CCCCCCN(CCCCCC)C(=O)[C@@H](N)CCCCN.Cl.Cl | F
